Source: patent US20190184007A1

Let's look at some binders and their measured Stability index.
# TARGET ENTITY: T1, HLA DQA1*0102:DQB1*0602, P01920
# T1 chain 1: not shown
# T1 chain 2: not shown
# ASSAY COMMENT: REVEAL class II binding assay (cell-free)

# count of solved cases: 5
{"columns": ["BINDER", "MEASURED QUANTITY", "RESULT"],
 "data": [
  ["EKATNPIVPSFDMSN (modifications not checked) [Peptide #7 (Common CP sequence)]", "Stability index", 0],
  ["IDPFKLLQNSQVVSL (modifications not checked) [Peptide #8 (Common CP sequence)]", "Stability index", 0.1],
  ["ALSRGFGSGIITSNA (modifications not checked) [Peptide #18 (Hemagglutinin fragment)]", "Stability index", 0],
  ["AMERNAGSGIIISDT (modifications not checked) [Peptide #16 (Hemagglutinin fragment)]", "Stability index", 0],
  ["ALNRGSGSGIITSDA (modifications not checked) [Peptide #17 (Hemagglutinin fragment)]", "Stability index", 0]
]}

API: the following record is the query input.
Q: Name the recorded Stability index for RELILYDKEEIRRIWRQANNG (modifications not checked) [Peptide #1 (X179-A NP fragment)] .
Result: 11.1
